Overview of reported inhibition across a group of compounds:
- experiment-description: 384-well plate pilot, post-Golgi transport modulator project, inhibition of yeast transport mutant growth (AID 636); note: test concentration not given here
- setup-conditions: absorbance 615 nm, about 18 h, hits give high values
All answers are understood in %, so give the number only.

Cn1c(=O)c2c(ncn2CC(=O)OCC(=O)NC2CCCc3ccccc32)n(C)c1=O (stereo unspecified) : -0.68
CC1CN=C(N(C(=O)Nc2ccccc2)c2ccc(S(=O)(=O)N3CCOCC3)cc2)S1 (stereo unspecified) : -0.51
CCOC(=O)c1c(C)oc2ccc(OCC(N)=O)cc12 : -0.79
O=C(c1ccco1)N1CCN(c2cccc(Cl)c2)CC1 : -0.93
CC(C)N(C=O)C1(C(=O)NC2CCCCC2)CCCCC1 : -0.53
CC(C)Nc1ncnc2c1cnn2-c1ccccc1 : 0
O=C(Nc1ccccc1C(F)(F)F)c1cc(S(=O)(=O)N2CCOCC2)ccc1F : -6.49
COc1cc(OC)cc(C(=O)N2CCN(C(=O)c3ccc(OC)c(OC)c3)CC2)c1 : -1.84

Looking up Cc1ccc(/C=N/n2nnnc2N)o1 , I found its inhibition recorded as -8.38

Looking up C=CCn1cc(C(=O)NCCOC)c(=O)c2cc(S(=O)(=O)N(CC)CC)ccc21 , I found its inhibition recorded as -5.13

Looking up O=C(OCc1ccc2c(c1)OCO2)c1ccc(S(=O)(=O)N2CCCCC2)cc1 , I found its inhibition recorded as -0.77
